The measured values listed here are drawn from PubChem BioAssay (NCATS).

target: DNA dC->dU-editing enzyme APOBEC-3G (Homo sapiens) (UniProt Q9HC16); experiment: qHTS for inhibitors of Vif-A3G interactions: Validation (AID 588379); conditions: Vif-A3G protein interaction assay; series mostly up to 46.1 µM
Sequence (Q9HC16 whole entry, looked up): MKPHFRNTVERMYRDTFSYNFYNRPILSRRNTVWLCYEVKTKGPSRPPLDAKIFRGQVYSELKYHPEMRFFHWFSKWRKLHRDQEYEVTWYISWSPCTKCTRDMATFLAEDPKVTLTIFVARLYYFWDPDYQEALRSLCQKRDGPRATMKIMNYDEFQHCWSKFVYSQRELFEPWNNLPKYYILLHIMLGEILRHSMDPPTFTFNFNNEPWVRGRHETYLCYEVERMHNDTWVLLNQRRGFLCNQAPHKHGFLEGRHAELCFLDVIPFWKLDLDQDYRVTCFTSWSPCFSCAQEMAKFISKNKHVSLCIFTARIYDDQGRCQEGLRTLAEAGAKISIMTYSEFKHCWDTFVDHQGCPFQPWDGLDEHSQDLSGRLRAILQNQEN
Calls of active or inactive are those of the source. The call rests on the fitted dose curve; in most records, active means well fitted inhibition curve with a large enough effect; inconclusive means small, poorly fitted or top-dose-only effect; inactive means flat fitted curve, though single readings scatter.
assay readout: outcome

Some compounds with known outcome results, for comparison:
                                     smiles  obs_value
0                 Cc1nc2c(O)cccc2c(=O)[nH]1   inactive
1  COc1cc(N)c(Cl)cc1C(=O)N[C@H]1CCN(CCCOc2ccc(F)cc2)C[C@@H]1OC   inactive
2  N[C@@H](Cc1cc(-c2ccc(Cl)cc2Cl)cc(CP(=O)(O)O)c1O)C(=O)O   inactive
3         CN(C)C/C=C(\c1ccc(Br)cc1)c1cccnc1   inactive
4       COC(=O)Nc1ccc2[nH]cc(CCNC(C)=O)c2c1   inactive

Okay, here is my list. What is outcome for each of these?
1. O=C1CC2(CCCC2)CC(=O)N1CCCCNC[C@H]1COc2ccccc2O1
2. Cc1ccc(/C(=C/CN2CCCC2)c2ccccn2)cc1

// result
inactive
inactive

---

test: Vero-766 cells viability qHTS against the NCATS CANVASS Library: Counterscreen for Zika virus inhibition assay (AID 1347394); conditions: Vero 766 viability, CellTiter-Glo luminescence, 72 h; series mostly up to 46.1 µM; further: nearly all actives have a fitted effect of over 60% in size
Results filed as inconclusive are left out. Active and inactive are the calls of the source. Calls follow the shape of the dose curve; as a rule, active = well fitted cell-killing curve with a large enough effect; inconclusive = small, poorly fitted or top-dose-only effect; inactive = flat fitted curve, though single readings scatter. Numbered stars: 1 amine (or outer) side, 2 acyl side, 3 side chain; on linkers, the order of the positions; unused ones are H or OH. Square brackets hold non-standard residues; d marks the D form. Peptide text beside a SMILES is read from it. X1 = CCCCCCCCCC(=O)[C@H](C(=O)[*:2])[C@@H]1CNC(=O)[C@@H](N[*:1])CS1
Hi! Could you answer with just one of these? active, inactive

Here are 3 compounds together with their reported answers.
compound	label
C=C1/C=C\C(CCC)=C\c2csc(n2)C(C)NC(=O)C[C@@]2(CC(=O)O)CCC(=C)[C@H](C1)S2 (stereo not given in full)	inactive
CN1CC[C@]2(c3cccc4c3N[C@@H]3N(C)CC[C@]43[C@@]34CCN(C)[C@@H]3Nc3c([C@]56CCN(C)[C@H]5Nc5ccccc56)cccc34)c3ccccc3N[C@H]12	active
C/C(=C\[C@H](C)C(=O)CCCC1CC(=O)NC(=O)C1)[C@@H]1OC(=O)/C=C/CC/C=C/C[C@@H](O)[C@@H]1C	inactive

// query Per the assay record, what outcome was assigned to C[C@H]1C[C@@H]([C@@H]2CC[C@]34O[C@H](CC[C@@]35C[C@H](C)C(=O)O5)CN24)OC1=O ?
// result inactive

// query Per the assay record, what outcome was assigned to CN1CC[C@]2(c3cccc4c3N[C@@H]3N(C)CC[C@]43[C@@]34CCN(C)[C@@H]3Nc3ccccc34)c3ccccc3N[C@H]12 ?
// result active

// query // param item: C/C=C/C=C/C1(O)C2C=C3C(=O)CC45C(=O)C(O)=C(C)C(=O)C4C1C1(C(=O)C(O)=C(C)C(=O)C351)C2C (stereo not given) ; yields the recorded call
// result inactive

// query Hey, what did the test say about C=CC(=C)CC[C@]1(C)[C@H]2C[C@H](OC(=O)C(C)CC)C=C3[C@H](OC(C)=O)O[C@H](OC(C)=O)[C@@]32[C@H](OC)C[C@@H]1C (stereo not given in full) ?
// result active

// query Tell me the assay call for CO[C@@H]1[C@H](O)[C@@H](C)O[C@@H](OC[C@@H]2C(C)OC(=O)/C=C/[C@H](C)C(O[C@@H]3O[C@H](C)CC4(OC(=O)O[C@@H]4C)C3O)[C@@H](C)CC(C)C(=O)CC[C@H]3OC23)[C@@H]1OC (stereo not given in full) please.
// result inactive

// query Record request — test call for C/C=C1/CC[C@@H]2c3[nH]c4ccccc4c3CCN2C1
// result inactive

// query Which outcome did this test record for the compound O=C(O)[C@@]12COC3(O)C1CCN1CC[C@H]3[C@@H]1c1c2[nH]c2ccccc12 ?
// result inactive

// query Assay outcome for CC1C(=O)C23CCC1C[C@@]21O[C@H]2C(C)(C)C=CC(=O)[C@@]23COC1=O (stereo not given in full) : what was it?
// result inactive

// query For COc1cc(O)c2c3c(c(O)cc(C)c13)C(=O)OC2 , which call appears in the assay record?
// result inactive

// query Record lookup: outcome of this test for COc1cc(/C=C2/C(=O)N(c3ccc(O)cc3C(=O)O)[C@H](c3ccc(O)c(OC)c3)C2C(=O)Nc2ccc(O)cc2C(=O)O)ccc1O (stereo not given in full) ?
// result inactive

// query # lookup: test call for CCCCCCCCCC(=O)[C@@H]1C(=O)N[C@@H](CC(C)C)C(=O)N[C@H](C)C(=O)N2CCC[C@H]2C(=O)N[C@@H](C(C)C)C(=O)N[C@H]2CS[C@H]1CNC2=O (cyclo(L[dA]PV[X1]))
// result inactive

// query Any idea what this test logged for Cc1cc(O)cc2oc(C[C@H](C)O)cc(=O)c12 ?
// result inactive
